Biological target: proMMP9(67-444;ΔFnII) (SEQ ID NO:5) (Homo sapiens, UniProt P14780, DEL216-390)
Construct: start methionine (N)
Sequence (P14780 with tags, fused parts or gaps DEL216-390): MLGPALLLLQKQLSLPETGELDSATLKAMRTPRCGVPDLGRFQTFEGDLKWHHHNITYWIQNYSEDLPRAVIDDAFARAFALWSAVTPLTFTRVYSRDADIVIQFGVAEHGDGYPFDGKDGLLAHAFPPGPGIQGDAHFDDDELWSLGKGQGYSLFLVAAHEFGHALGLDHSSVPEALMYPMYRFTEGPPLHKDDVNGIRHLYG
Experiment: ThermoFluor with proMMP9(67-444;ΔFnII)
Conditions: read-out: proMMP9(67-444; ΔFnII) (SEQ ID NO: 5) binding
pKd: −log10 of the molar value.
READOUT NAME: pKd

# example entries with known answers
MOL: CC(C)Oc1ccc(S(N)(=O)=O)cc1Nc1nc(-c2ccc(OCCN3CCOCC3)cc2)cs1
pKd: 6.96
--
MOL: CC(C)Oc1ccc(S(N)(=O)=O)cc1Nc1nc(-c2ccc(CN3CC[C@@H](F)C3)cc2)cs1
pKd: 7.02
--
MOL: CC(C)Oc1ccc(C(N)=O)cc1Nc1nc(-c2ccc(CN3CCN(C(C)C)CC3)cc2)cs1
pKd: 7.10
--
MOL: CC(C)Oc1ccc(S(N)(=O)=O)cc1Nc1nc(-c2ccc(N3CCNCC3)c(Br)c2)cs1
pKd: 7.82
--
MOL: COc1ccncc1Nc1nc(-c2ccc(OCCN3CCC(F)CC3)cc2)cs1
pKd: 6.00
--
MOL: CC(C)Oc1ccc(S(N)(=O)=O)cc1Nc1nc(-c2ccc(CN3CCOCC3)cc2)cs1
pKd: 6.74
--
MOL: COc1ccc(F)cc1Nc1nc(-c2ccc(OCCN3CCC(F)(F)CC3)cc2)cs1
pKd: 5.11
--
MOL: NC(=O)c1ccc(OC(F)(F)F)c(Nc2nc(-c3ccc(OCCN4CCC(F)CC4)cc3)cs2)c1
pKd: 6.57

[A] CC(C)Oc1ccc(S(N)(=O)=O)cc1Nc1nc(-c2ccc(CN3CCN(C)CC3)cc2)cs1
[B] CC(C)Oc1ccc(C(N)=O)cc1Nc1nc(-c2ccc(N3CCNCC3)cc2)cs1
Which entry has a larger number for pKd, A or B ? // return label of chosen record
B
(B: 7.68, A: 7.40)

[A] COc1cc(C)c(C(N)=O)cc1Nc1nc(-c2ccc(OCCN3CCC(F)CC3)cc2)cs1
[B] CCOc1ccncc1Nc1nc(-c2ccc(OCCN3CCN(C)CC3)cc2)cs1
[C] NS(=O)(=O)c1cc2c(c(Nc3nc(-c4ccc(OCCN5CCC(F)CC5)cc4)cs3)c1)OCC2
[D] CC(C)Oc1ccc(S(N)(=O)=O)cc1Nc1nc(-c2ccc(C3=CCN(C)CC3)cc2)cs1
hey, can you rank those molecules up there by pKd? biggest number first please Answer format: the labels, ordered as requested.
D, B, A, C
(D: 7.85, B: 7.05, A: 6.19, C: 5.52)

[A] CC(C)Oc1ccc(S(N)(=O)=O)cc1Nc1nc(-c2ccc(CN3CCN(C4CC4)CC3)cc2)cs1
[B] CC(C)Oc1ccc(S(N)(=O)=O)cc1Nc1nc(-c2ccc(C3=CCN(C(C)C)CC3)cc2)cs1
Which entry has a larger number for pKd, A or B ? // return label of chosen record
B
(B: 7.74, A: 7.10)

[A] CC(C)Oc1ccc(C(N)=O)cc1Nc1nc(-c2ccc(CN3CCN(C)CC3)cc2)cs1
[B] CC(C)Oc1ccc(S(N)(=O)=O)cc1Nc1nc(-c2ccc(N3CCNCC3)cc2)cs1
[C] NS(=O)(=O)c1ccc(OC(F)(F)F)c(Nc2nc(-c3ccc(OCCN4CCC(F)(F)CC4)cc3)cs2)c1
[D] CC(C)Oc1ccc(S(N)(=O)=O)cc1Nc1nc(-c2ccc(CN3CCC(F)CC3)cc2)cs1
[E] COc1ccc(F)cc1Nc1nc(-c2ccc(CN3CCC(F)CC3)cc2)cs1
Sort entries by pKd from minimum to maximum value. Answer format: the labels, ordered as requested.
E, C, A, D, B
(E: 5.24, C: 6.19, A: 7.00, D: 7.28, B: 8.22)

Reference source: patent US20120302569A1
